method notes: thallium-flux fluorescence assay (FLIPR, BTC/AM)
Format: cell-based, Homo sapiens
cond: read-out: Kir6.2/SUR1 / IC50
pIC50: −log10 of the molar value.
property name: pIC50

C1CCC(/N=C(\NC23CC4CC(CC(C4)C2)C3)N2CCOCC2)CC1 [PNU-37883A]	< 4.00

// switching to the query compound
Given item CN(CCOc1ccc(CC2SC(=O)NC2=O)cc1)c1ccccn1 (centres unmarked) , the value recorded as its pIC50 is < 4.00

====

system under test: Kir6.2/SUR2A (Homo sapiens, UniProt O60706+Q14654)
Construct: full-length human subunits co-expressed stably in HEK293 cells; GenScript vectors; four Kir6.2 plus four SUR2A
Sequence (Q14654 whole entry): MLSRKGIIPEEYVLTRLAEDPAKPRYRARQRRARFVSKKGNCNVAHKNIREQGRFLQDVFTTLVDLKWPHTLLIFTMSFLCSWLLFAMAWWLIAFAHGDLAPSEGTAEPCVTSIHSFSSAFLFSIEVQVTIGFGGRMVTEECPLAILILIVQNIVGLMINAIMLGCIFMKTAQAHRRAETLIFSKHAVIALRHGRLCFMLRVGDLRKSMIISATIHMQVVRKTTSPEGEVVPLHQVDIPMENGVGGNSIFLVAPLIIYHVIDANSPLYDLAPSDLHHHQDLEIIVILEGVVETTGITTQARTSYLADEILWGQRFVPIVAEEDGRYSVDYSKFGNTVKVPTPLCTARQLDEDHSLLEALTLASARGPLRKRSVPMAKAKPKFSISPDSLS
Sequence (O60706 whole entry): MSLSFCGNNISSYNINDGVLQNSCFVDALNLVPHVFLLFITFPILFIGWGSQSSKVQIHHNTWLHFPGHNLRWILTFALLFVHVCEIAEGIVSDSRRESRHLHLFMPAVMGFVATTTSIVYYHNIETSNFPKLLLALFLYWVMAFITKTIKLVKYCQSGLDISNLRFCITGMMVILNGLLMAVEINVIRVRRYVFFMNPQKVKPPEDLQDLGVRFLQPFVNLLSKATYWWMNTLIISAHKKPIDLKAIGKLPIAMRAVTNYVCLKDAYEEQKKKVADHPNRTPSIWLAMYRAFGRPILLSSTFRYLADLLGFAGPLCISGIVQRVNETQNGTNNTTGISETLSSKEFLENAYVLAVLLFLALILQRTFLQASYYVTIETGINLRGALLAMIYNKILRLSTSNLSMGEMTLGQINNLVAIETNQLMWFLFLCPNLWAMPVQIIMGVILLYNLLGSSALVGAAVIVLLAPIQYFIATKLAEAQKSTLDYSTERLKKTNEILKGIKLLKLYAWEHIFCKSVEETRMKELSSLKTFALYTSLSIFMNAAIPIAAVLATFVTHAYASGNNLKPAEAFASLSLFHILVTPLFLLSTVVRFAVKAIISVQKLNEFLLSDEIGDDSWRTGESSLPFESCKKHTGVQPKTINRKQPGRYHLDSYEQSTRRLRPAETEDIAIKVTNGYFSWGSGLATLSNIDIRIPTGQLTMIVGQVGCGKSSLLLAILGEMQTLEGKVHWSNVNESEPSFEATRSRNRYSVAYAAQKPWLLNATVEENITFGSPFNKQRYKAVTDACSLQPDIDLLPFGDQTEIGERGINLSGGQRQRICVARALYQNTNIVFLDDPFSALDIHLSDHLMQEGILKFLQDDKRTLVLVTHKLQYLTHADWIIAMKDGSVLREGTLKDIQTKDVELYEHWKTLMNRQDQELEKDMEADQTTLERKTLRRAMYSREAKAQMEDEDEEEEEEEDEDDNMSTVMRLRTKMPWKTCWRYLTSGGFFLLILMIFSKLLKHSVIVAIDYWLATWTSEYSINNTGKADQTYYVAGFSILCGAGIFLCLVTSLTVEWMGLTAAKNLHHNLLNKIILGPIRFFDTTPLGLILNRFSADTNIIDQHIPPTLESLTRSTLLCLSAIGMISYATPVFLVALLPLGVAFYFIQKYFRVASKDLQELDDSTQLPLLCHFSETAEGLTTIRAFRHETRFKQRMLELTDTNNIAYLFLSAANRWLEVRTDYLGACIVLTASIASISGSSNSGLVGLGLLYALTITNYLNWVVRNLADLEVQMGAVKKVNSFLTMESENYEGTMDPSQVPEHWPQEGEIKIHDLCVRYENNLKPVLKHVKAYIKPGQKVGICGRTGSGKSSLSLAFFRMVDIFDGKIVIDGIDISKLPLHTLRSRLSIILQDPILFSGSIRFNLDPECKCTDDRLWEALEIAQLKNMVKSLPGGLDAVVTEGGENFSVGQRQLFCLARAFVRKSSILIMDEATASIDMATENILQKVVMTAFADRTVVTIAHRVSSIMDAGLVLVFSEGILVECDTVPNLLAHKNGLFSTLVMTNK
method notes: thallium-flux fluorescence assay (FLIPR, BTC/AM)
property name: pEC50
Would you please state pEC50, meaning minus log10 of the concentration in mol/L, as a bare number?

Consider the following illustrative entries.
CC(O)(C(=O)Nc1ccc(S(=O)(=O)c2ccccc2)cc1)C(F)(F)F (centres unmarked) [ZM226600]	5.55
CC(=O)N(O)[C@@H]1c2cc(C#N)ccc2OC(C)(C)[C@H]1O [Y-26763]	5.89
O=C1CCCC2=C1[C@H](c1ccc(F)c(Br)c1)C1=C(CCS1(=O)=O)N2 [A-278637]	5.80

Given item CCC(C)(C)NC(=NC#N)Nc1cccnc1 [P1075] , the value recorded as its pEC50 is 6.29
